Target: T1, EDIII-DV2 (Dengue virus serotype 2 (DV2), UniProt P14337 581-673)
T1 construct: also called EDIII of DV2; EDIII-DVII
pKd: −log10 of the molar value.
MEASURED_PROPERTY: pKd

-- ask Give recorded pKd. VH_G27_del (antibody, V domains shown) VH: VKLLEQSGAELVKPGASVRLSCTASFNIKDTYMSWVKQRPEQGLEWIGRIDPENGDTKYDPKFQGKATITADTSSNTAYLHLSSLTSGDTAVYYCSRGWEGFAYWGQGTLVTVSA VL: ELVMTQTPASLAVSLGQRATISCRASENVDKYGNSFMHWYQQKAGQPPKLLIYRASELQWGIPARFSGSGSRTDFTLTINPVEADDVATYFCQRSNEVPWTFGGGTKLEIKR
-- reply > 9.52
